tested on: Pea; experiment: Further herbicidal test, various rates; assay type: in vivo; conditions: 5 lb/acre; scale 0 to 5 (complete kill)
Result type: Damage to plants, post-emergence
No unit in the answer, only the number.

Query: # Damage to plants, post-emergence lookup, item O=[N+]([O-])c1c(F)c(F)c(Nc2c(Cl)c(F)nc(F)c2Cl)c(F)c1F [Compound 12]
Response: 1

Query: Similarly, Fc1nc(F)c(Cl)c(Nc2c(F)c(F)c(F)c(F)c2F)c1Cl [Compound 10] ?
Response: 0

Query: Similarly, O=[N+]([O-])c1ccc(Nc2c(Cl)c(F)nc(F)c2Cl)c(C(F)(F)F)c1 [Compound 5] ?
Response: 4

Query: Similarly, N#Cc1c(F)c(F)c(Nc2c(Cl)c(F)nc(F)c2Cl)c(F)c1F [Compound 19] ?
Response: 0
